variants and their reported SGCB cell-surface expression functional score (log10)
B1: library; numbered along this chain (parent)
chain: MAAAAAAAAEQQSSNGPVKKSMREKAVERRSVNKEHNSNFKAGYIPIDEDRLHKTGLRGRKGNLAICVIILLFILAVINLIITLVIWAVIRIGPNGCDSMEFHESGLLRFKQVSDMGVIHPLYKSTVGGRRNENLVITGNNQPIVFQQGTTKLSVENNKTSITSDIGMQFFDPRTQNILFSTDYETHEFHLPSGVKSLNVQKASTERITSNATSDLNIKVDGRAIVRGNEGVFIMGKTIEFHMGGNMELKAENSIILNGSVMVSTTRLPSSSSGDQLGSGDWVRYKLCMCADGTLFKVQVTSQNMGCQISDNPCGNTH

Variants of: B1
Test: SGCB cell-surface expression functional score (HA stain, bin4 vs bin1, normalised to synonymous) (log10 ratio); higher = more cell-surface SGCB (functional)
Lab note: jot down the number only; don't add units.

Please review the entries below; each comes with its answer.
K250Y ... 1.05
L198R ... -2.21
D292Q ... -1.17

Would you kindly look at the next entry?
Fill in: SGCB cell-surface expression functional score (log10) of V113H is ___
-0.84
